Cited source for all entries: patent US20250027068

Target: pooled human IgG (human IgG1,2,3 and 4)
PARAMETER: Enzyme Activity Endpoint Assay: IgG (ng/µL)
The answer is to be given in ng/µL; state only the numeric part.

Solved cases below.
INSERT INTO assay_data (protein, reported_value) VALUES
  ('PRT-100 (protein) MANQEIRYSEVTPYHVTSVWTKGVTPPAKFTQGEDVFHAPYVANQGWYDITKTFNGKDDLLCGAATAGNMLHWWFDQNKEKIEAYLKKHPDKQKIMFGDQELLDVRKVINTKGDQTNSELFNYFRDKAFPNLSARRIGVMPDLVLDMFINGYYLNVYKTQTTDVNRTYQEKDRRGGIFDAVFTRGDQSKLLTSRHDFKEKNLKEISDLIKKELTEGKALGLSHTYANVRINHVINLWGADFDSNGNLKAIYVTDSDSNASIGMKKYFVGVNSAGKVAISAKEIKEDNIGAQVLGLFTLSTGQDSWNQTN', 0),
  ('PRT-291 (protein) MVTSVWTKGVTPPADFTQGEDVFHAPYVANQGWYDITKTFNGKDDLLCGAATAGNMLHWWFDQNKEYIEAYLKKHPEKQKIMFGDQELLDVRKAINTKGSQKNSELFNYFRDKAFPNLSARRLGVMPDLVLDMFINGYYLNVTKTQTTDVNRTYQEKDKRGGIFDAVFTRGDQSKLLTSRHDFKEKGLKEISDLIKQELTEGKALGLSHTYANVRLNHVINLWGADFDSDGNLKAIYVTDSDSNASIGMKKYFVGVNSSGKVAISAKEIKEDNIGAQVLGLFTLSTGQDIWNQTN', 0),
  ('PRT-91 (protein) MANQEIRYSEETPYHITSVWTKGVTPPAKFTQGEDVFHAPYVANQGWYDITKTFNGKDDLLCGAATAGNMLHWWFDQNKEKIEAYLKKHPEKQKIMFGDQELLDVRKVINTKDDQTNSELFNYFRDKAFPNLSARRLGVMPDLVLDMFINGYYLNVGKTQTTDVNRTYQEKDKRGGIFDAVFTRGDQSKLLTSRHDFKEKNLKEISDLIKQELTEGKALGLSHTYANVRINHVINLWGADFDSNGNLKAIYVTDSDSNASIGMKKYFVGVNSAGKVAISAKEIEEDNIGAQVLGLFTLSTGQDIWNQTN', 16);

Quick one: Enzyme Activity Endpoint Assay: IgG for PRT-93 (protein) MANQEIRYSEVTPYHVTSVWTKGVTPPAKFTQGEDVFHAPYVANQGWYDITKTFNGKDDLLCGAATAGNMLHWWFDQNKEKIEAYLKKHPDKQKIMFGDQELLDVRKVINTKDDQTNSELFNYFRDKAFPGLSARRIGVMPDLVLDMFINGYYLNVYKTQTTDVNRTYQEKDRRGGIFDAVFTRGDQSKLLTSRHDFKEKNLKEISDLIKKELTEGKALGLSHTYANVRINHVINLWGADFDSNGNLKAIYVTDSDSNASIGMKKYFVGVNSAGKVAISAKEIKEDNIGAQVLGLFTLSTGQDSWNQTN ?
11

Next record, please: PRT-476 (protein) MVTSVWTKGVTPPTNFTYGEDVLHAPYVANQGWYDITKAFDGGDDLLCGAATAGNMLHWWFDQNKEQIENYLKKHPEKQKINFNGEQMFDVKEAIDTKDSQTNSELFNYFKEKAFPYLSTKHLGVFPDHVIDMFINGYRLSLTNHGPTPVKRGSKDPRGGIFDAVFTRGDQSKLLTNRHDLKNKTLKEISDLIKQELTEGKALGISHTYANVRINHVINLWGADFDAEGNLEAIYVTDSDSNASIGMKKYFVGVNSNGKVAISAKEIEEDNIGAQVLGLFTLSTGQDIWNQTNLEHHHHHH
2090

Next record, please: PRT-184 (protein) MANQEIRYSEVTPYHVTSVWTKGVTPPANFTQGEDVFHAPYVANQGWYDITKTFNGKDDLLCGAATAGNMLHWWFDQNKDQIKRYLEEHPEKQKINFNGEQMFDVKEAIDTKNHQLDSKLFEYFKEKAFPYLSTKHLGVFPDHVIDMFINGYRLSLTNHGPTPVKEGSKDPRGGIFDAVFTRGDQSKLLTSRHDFKEKNLKEISDLIKKELTEGKALGLSHTYANVRINHVINLWGADFDSNGNLKAIYVTDSDSNASIGMKKYFVGVNSAGKVAISAKEIKEDNIGAQVLGLFTLSTGQDSWQKLS
0

Next record, please: PRT-182 (protein) MANQEIRYSEVTPYHVTSVWTKGVTPPANFTQGEDVFHAPYVANQGWYDITKTFNGKDDLLCGAATAGNMLHWWFDQNKDQIKRYLEEHPEKQKINFNGEQMFDVKEAIDTKNHQLDSKLFEYFKEKAFPYLSTKHLGVFPDHVIDMFINGYRLSLTNHGPTPVKEGSKDPRGGIFDAVFTRGDQSKLLTSRHDFKEKNLKEISDLIKKELTEGKALGLSHTYANVRINHVINLWGADFDSNGNLKAIYVTDSDSNASIGMKKYFVGVNSAGKVAISAKKIKEDNIGAQVLGLFTLSTGQDSWNQTN
0

Next record, please: PRT-90 (protein) MANQEIRYSEETPYHVTSVWTKGVTPPAKFTQGEDVFHAPYVANQGWYDITKTFNGKDDLLCGAATAGNMLHWWFDQNKEKIEAYLKKHPEKQKIMFGDQELLDVRKVINTKDDQTNSELFNYFRDKAFPGLSARRLGVMPDLVLDMFINGYYLNVYKTQTTDVNRTYQEKDRRGGIFDAVFTRGDQSKLLTSRHDFKEKTLKEISDLIKKELTEGKALGLSHTYANVRINHVINLWGADFDSNGNLKAIYVTDSDSNASIGMKKYFVGVNSAGKVAISAKEIKEDNIGAQVLGLFTLSTGQDIWNQTN
21
